B1: ANKRD17 (parent)
chain: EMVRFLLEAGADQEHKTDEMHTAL

# Variants of: B1
# PROCEDURE DETAILS: protein stability index of a GFP-peptide fusion (GPS, HEK-293T) (PSI 1-6); higher = more stable;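 further: lentivirally expressed fusions sorted by FACS into six bins by GFP to DsRed ratio, PSI derived from sequencing read proportions per bin multiplied by bin number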
# CONDITION LABEL: c terminus: a fixed tail appended
Entry flag: y if protein stability index reaches 3; n if it does not.

Solved cases (5 shown):
A23P
y
D18G
n
E1D
n
E1L
n
L7D
y

Query: Threshold query (protein stability index >= 3) on "M2W"
Result: n

Query: Say whether "T22N" shows protein stability index of 3 or more.
Result: n

Query: Decide: is the reported value of protein stability index for "E19T" equal to or greater than 3?
Result: n

Query: Check if protein stability index >= 3 (inclusive). Item: "Q13C"
Result: y

Query: Quick check, protein stability index >= 3? "L7E"
Result: y

Query: Assess whether reported protein stability index for "E19R" sits at 3 or higher.
Result: n

Query: Test whether the variant "L24W" records protein stability index of 3 or higher.
Result: n

Query: Evaluate "A9W" : protein stability index at minimum 3?
Result: n

Query: Has "E14I" a recorded protein stability index greater than or equal to 3?
Result: n

Query: Hi team, for "Q13V" , is the recorded protein stability index at or above 3?
Result: n

Query: protein stability index >= 3 for "E8I" ?
Result: n

Query: Test whether the variant "E14L" records protein stability index of 3 or higher.
Result: n

Query: Test whether the variant "A9Q" records protein stability index of 3 or higher.
Result: n

Query: Hi, just wondering whether "H15L" shows protein stability index of 3 or higher.
Result: n

Query: Hello, I need to know if "M20G" has measured protein stability index not below 3. Thanks!
Result: y

Query: Would you say "F5E" shows protein stability index at minimum 3?
Result: y
